Reference source for all entries: ChEMBL document CHEMBL2218924

Listed here are compounds together with their documented residual activity.
# Target under test: Muscle, skeletal receptor tyrosine-protein kinase (Homo sapiens) (UniProt O15146)
# Sequence (whole entry): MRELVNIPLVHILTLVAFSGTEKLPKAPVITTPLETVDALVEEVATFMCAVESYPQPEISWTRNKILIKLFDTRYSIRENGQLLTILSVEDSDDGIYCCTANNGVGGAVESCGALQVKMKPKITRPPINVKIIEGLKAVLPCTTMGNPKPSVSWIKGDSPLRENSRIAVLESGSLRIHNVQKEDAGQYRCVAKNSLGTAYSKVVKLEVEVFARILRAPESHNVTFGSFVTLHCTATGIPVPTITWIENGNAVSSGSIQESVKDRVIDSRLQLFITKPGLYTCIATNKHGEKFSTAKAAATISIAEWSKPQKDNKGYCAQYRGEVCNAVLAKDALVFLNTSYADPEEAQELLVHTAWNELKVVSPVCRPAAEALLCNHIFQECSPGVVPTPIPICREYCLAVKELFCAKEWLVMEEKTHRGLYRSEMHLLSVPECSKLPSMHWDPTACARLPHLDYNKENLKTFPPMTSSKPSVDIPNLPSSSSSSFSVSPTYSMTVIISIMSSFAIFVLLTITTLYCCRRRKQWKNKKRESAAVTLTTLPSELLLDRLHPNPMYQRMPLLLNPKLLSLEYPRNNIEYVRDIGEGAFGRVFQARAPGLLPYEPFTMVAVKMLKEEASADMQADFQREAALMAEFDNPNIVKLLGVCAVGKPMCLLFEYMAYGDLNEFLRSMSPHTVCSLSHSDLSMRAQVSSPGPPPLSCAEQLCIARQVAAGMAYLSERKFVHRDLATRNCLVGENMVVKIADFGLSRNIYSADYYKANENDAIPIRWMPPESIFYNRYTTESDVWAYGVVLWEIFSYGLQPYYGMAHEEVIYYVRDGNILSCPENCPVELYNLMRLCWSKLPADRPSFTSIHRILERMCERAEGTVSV
# Reported conditions: at 1 µM
Please state the figure in %; there is no need to write the unit.

Consider the reported residual activity for these compounds:
- Smiles structure: "O=C1NC(=O)C(c2cn(CCCO)c3ncccc23)=C1c1cnccn1"
  Target under test: "Muscle, skeletal receptor tyrosine-protein kinase (Homo sapiens) (UniProt O15146)"
  Measured metric: "residual activity"
  Reading unit: "%"
  Measured: 81
- Smiles structure: "COc1ccc(CNC(=O)Nc2ncc([N+](=O)[O-])s2)cc1"
  Target under test: "Muscle, skeletal receptor tyrosine-protein kinase (Homo sapiens) (UniProt O15146)"
  Measured metric: "residual activity"
  Reading unit: "%"
  Measured: 68
- Smiles structure: "CCCCc1c(-c2ccc(O)cc2)[nH]c2nccnc12"
  Target under test: "Muscle, skeletal receptor tyrosine-protein kinase (Homo sapiens) (UniProt O15146)"
  Measured metric: "residual activity"
  Reading unit: "%"
  Measured: 81
- Smiles structure: "O=C1Nc2ccc(Cl)cc2/C1=C/c1cc(Cl)c(O)c(Cl)c1"
  Target under test: "Muscle, skeletal receptor tyrosine-protein kinase (Homo sapiens) (UniProt O15146)"
  Measured metric: "residual activity"
  Reading unit: "%"
  Measured: 81
- Smiles structure: "CCN1/C(=C/C(C)=O)Sc2ccc(OC)cc21"
  Target under test: "Muscle, skeletal receptor tyrosine-protein kinase (Homo sapiens) (UniProt O15146)"
  Measured metric: "residual activity"
  Reading unit: "%"
  Measured: 82
- Smiles structure: "O=C1NC(=O)c2c1c1c3ccccc3[nH]c1n1cncc21"
  Target under test: "Muscle, skeletal receptor tyrosine-protein kinase (Homo sapiens) (UniProt O15146)"
  Measured metric: "residual activity"
  Reading unit: "%"
  Measured: 72

Could you now look at the following compound, please?
Can you look up the measured residual activity of `O=C1Nc2ccccc2/C1=C\c1c(Cl)[nH]c2ccccc12` for me? 78
